Cited source: the supplement of paper PMC3334620

- system-tested: Stp1 (UniProt B3LFK1)
- Sequence: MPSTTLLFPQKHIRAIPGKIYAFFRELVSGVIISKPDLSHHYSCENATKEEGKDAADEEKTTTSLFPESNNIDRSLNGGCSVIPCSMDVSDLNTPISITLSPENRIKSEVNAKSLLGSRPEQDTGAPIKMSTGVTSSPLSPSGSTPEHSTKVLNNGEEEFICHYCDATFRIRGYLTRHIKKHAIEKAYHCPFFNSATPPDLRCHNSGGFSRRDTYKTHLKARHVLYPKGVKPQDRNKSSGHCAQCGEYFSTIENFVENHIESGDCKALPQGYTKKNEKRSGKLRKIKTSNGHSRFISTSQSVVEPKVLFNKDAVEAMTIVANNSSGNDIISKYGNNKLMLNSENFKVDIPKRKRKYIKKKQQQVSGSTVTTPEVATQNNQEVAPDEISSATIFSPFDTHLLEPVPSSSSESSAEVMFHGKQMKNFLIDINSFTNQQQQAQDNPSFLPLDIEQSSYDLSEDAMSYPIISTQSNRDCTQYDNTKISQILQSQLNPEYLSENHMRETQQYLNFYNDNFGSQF
- protocol-text: PBM E-score (8-mer binding enrichment) (E-score (-0.5 to 0.5)); higher = stronger / more preferred TF binding
- condition-details: protein concentration: 200 nM; construct: GST-full length
The full ranking holds about 33,000 sequences; the median of “E-score (-0.5 to 0.5)” is about -0.016, and the highest 2% start at about 0.32. The full list was thinned out, with the highest values kept by preference.
Listing of recorded PBM E-score by entry.

record-sequence | PBM E-score
ACGCCGTG | 0.485
CGGCAAGC | 0.124
CGGCGAGA | 0.325
CGGCGACG | 0.349
GGGCAATA | 0.0993
AGGCGACG | 0.209
AGGCCGTC | -0.0198
AGGCCGTG | 0.307
ATATCTAA | 0.0738
CCTGCTTA | -0.0853
CCCCCGTA | -0.238
CGGCAATC | 0.332
CCGCCGTA | 0.42
CACGGCCA | 0.34
GGGCGACA | 0.0209
ACGCCGTA | 0.471
CTTCTAAA | 0.168
CTAAGGGC | -0.224
AGGCAATC | 0.114
ACACCGTA | -0.0212
CAGCCTTC | -0.091
CGGCGACA | 0.369
